# Assay remarks: yeast display, Sf9 membrane polyspecificity reagent, FACS + sequencing; frameworks hold sequencing errors
Assay metric: polyreactivity (PSR sort gate)

A selection of reference data follows.
Sequence entry	Result
QVQLVESGGGLVQAGGSLRLSCAASGFTFAPYDMGWYRQAPGKERELVATISWSGARTYYADSVKGRFTISRDNAKNTVYLQMNSLKAEDTAVYYCAAAYSSSKSSGNYYYWGQGTQVTVSS	high polyreactivity
QVQLVESGGGLVQAGGSLRISCAASGSIFPAYDMGWYRQAPGKERELVAAITRGGSTDYADSVNGRFTISRDNAKNTVYLQMNSLKPEDTAVYFCAKRGYYYYHYVSGKPEDYWGQGTQVTVSS	low polyreactivity
QVQLVESGGGLVQAGGSLRLSCDASGFTFYGNAMGWYRQAPGKERELVAAISGRGGSTYYADSVKGRFTISRDNAKNTVYLQMNSLKPEDTAVYYCAIYVSWPLYYYWGQGTQVTVSS	low polyreactivity
QVQLVESGGGLVQAGGSLRLSCAASGITFYLNAMGWYRQAPGKERELVADITVSGGSTYYADSVKGRFTISRDTAKNTVYLQMNSLIPEDTAVYYCAADLTISYSQEYYYWGQGTQVTVSS	low polyreactivity
QVQLLESGGGLVQSGGILRLSCAASGRNFGRYAMGLYRQAPGKERELLATITWRGGITYYADSVKGRFTISRDNAMNTVSLQMNSLKPEDSAVYYCAAGYGRIPYVYWGKGTQVTVSS	high polyreactivity
QVQLLESGGGLVQAGGSLRLSCMASGSILGDRMSWYRQAPGKEHELVATIYDGGITYYADSMKGRFTISRDNAKNTVYLQMNSLRPEDTAVYYCGASFEGYGYHVYCGQGTQVTVSS	low polyreactivity
QVQLVESGGGLVQAGGSLRLSCAASGCTFPLYLMGWYRQAPGKERELVAAIDWSGGSTYYADSVKGRFTISRDNAKNTVYLQMNSLKPEDTAVYYCAARYTSLRNYGYDYWGQGTQVTVSS	low polyreactivity
QVQLVESGGGLVQAGGSLRLSCAASGSIFLYNDMGWYRQAPGKERELVAAISSGGNTNYADSVTGRFTISRDNAKNTVYLQMNSLKPEDTAVYYCNAAWIRVFQYTLYKYVYWGQGTQVTVSS	low polyreactivity
QVQLVESGGGLVQAGGTLRISCAASGITINYNAMGWYRQAPGKEMELVAAITRSGGSTNYADSVKGRFTISRDNAKNTVYLQMNSLKPEDTAVYYCAKGHLYAGHRHYAYGYWGQGTQVTVSS	low polyreactivity
QVQLVESGGGLVQAGGSLRLSCAASGSTVGAYAMGWYRQAPGKERELVAAISYSGGSTYYADSVKGRFTISRDNAKNSVYLQMNSLKPEDSAVYYCAAGTKYTSAVHFFYWGQGTQVTVSS	high polyreactivity

`QVQLVESGGGLVQAGGSLRLSCAASGITFSFYAMGWYRQAPGKERELVADITRGGNTNYADSVKGRFTISRDNAKNTVYLQMNSLKPEDTAVYYCNARRRGAGGYDYWGQGTQVTVSS` yielded polyreactivity (PSR sort gate) of high polyreactivity

`QVQLVESGGGLVQAGGSLRLSCAASGRTFLLYAMGWYRQAPGKERELVAAIRSSTVSTYYADSVKGRFTISRDNAKNTVYLQMNSLKPEDTAVYYCAASRPKYGPSGVHYNYWGQGTQVTVSS` yielded polyreactivity (PSR sort gate) of high polyreactivity
